Target sequence: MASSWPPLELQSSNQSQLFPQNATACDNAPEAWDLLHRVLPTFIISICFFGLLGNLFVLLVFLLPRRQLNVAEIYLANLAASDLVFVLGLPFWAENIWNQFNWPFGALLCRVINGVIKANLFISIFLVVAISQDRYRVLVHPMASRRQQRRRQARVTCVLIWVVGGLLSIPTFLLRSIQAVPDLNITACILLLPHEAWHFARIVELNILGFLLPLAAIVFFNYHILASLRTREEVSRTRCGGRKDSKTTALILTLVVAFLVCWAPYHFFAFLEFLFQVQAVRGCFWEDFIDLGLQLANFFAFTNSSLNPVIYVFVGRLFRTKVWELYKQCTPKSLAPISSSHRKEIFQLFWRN
Endpoint: Ki (nM)
Report the value in nM with no unit label.

Task item: Complete the entry with Ki for `O=C(C[C@@H](NS(=O)(=O)c1ccc2ccccc2c1)c1ccccc1)NCc1ccc(CN2CCCCC2)cc1`
Reply: 132

Task item: Tell me its Ki given `C[C@@H](NC(=O)C[C@@H](NS(=O)(=O)c1ccc2ccccc2c1)c1ccccc1)c1ccc(CN2CCCCC2)cc1` as the entry.
Reply: 17

Task item: Identify the reported Ki for the following entry. O=C(CC(NS(=O)(=O)c1ccc2ccccc2c1)c1ccccc1)NCc1ccc(CN2CCCCC2)cc1 (racemic)
Reply: 382
